Field: p53-positive nuclei, normalised. Provide a value for each of the compounds that follow.
- test.target: Cellular tumor antigen p53 (Homo sapiens) (UniProt P04637)
- Sequence (P04637 whole entry, looked up): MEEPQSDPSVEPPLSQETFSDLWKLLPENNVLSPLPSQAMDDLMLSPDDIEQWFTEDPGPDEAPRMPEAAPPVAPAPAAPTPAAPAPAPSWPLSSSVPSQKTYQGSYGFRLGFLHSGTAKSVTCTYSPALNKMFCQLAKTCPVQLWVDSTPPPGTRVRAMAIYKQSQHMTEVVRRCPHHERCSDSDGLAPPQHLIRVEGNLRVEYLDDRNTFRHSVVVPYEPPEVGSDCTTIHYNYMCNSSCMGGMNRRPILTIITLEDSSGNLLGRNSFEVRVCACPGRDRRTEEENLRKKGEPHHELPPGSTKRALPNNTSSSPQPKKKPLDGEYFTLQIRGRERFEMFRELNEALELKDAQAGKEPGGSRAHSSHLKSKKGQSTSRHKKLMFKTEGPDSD
- measurement.notes: p53 stabilisation in HPV-positive human cells, imaging, p53-positive nuclei imaging, 24 h, 48 h (AID 1508601)
- study.conditions: 24/48 h, measured here: p53 positive nuclei at 24 h, Library stock concentration: 3.33 mM, stronger effect = higher value
Out of some 5,700 compounds screened, about 85 (1%) were called active. Many of the other results were omitted from the sample, so actives are more common in it than they were.
Give bare numbers, in %.

# example entries with known answers
compound	p53-positive nuclei, normalised (%)
C[C@]12NC(Cc3ccccc31)c1ccccc12	-0.588
Cc1ccc(-n2nccn2)c(C(=O)N2CCN(c3nc4cc(Cl)ccc4o3)CCC2C)c1 (centres undefined)	-0.163
O=c1[nH]c2ccc(Cl)cc2c(NC2CN3CCC2CC3)c1-c1nc2ccccc2[nH]1 (centres undefined)	8.33

# context switch: different compound, same p53-positive nuclei, normalised
Task: For the compound CC=C(C)C(=O)NC(c1ccccc1)C(O)C(=O)OC1C[C@@]2(O)C(OC(=O)c3ccccc3)[C@@H]3[C@]4(OC(C)=O)COC4CC(O)[C@@]3(C)C(=O)C(OC(C)=O)C(=C1C)C2(C)C (some centres undefined) , report p53-positive nuclei, normalised.
Output: -0.0935
